Documented ID50 (dosage which led to a 50% inhibition of the MPO activity) across a set of molecules
- Tested on: cigarette smoke-induced influx of neutrophilic granulocytes into the lung tissue
- experiment_summary: Test 1: Inhibition of the smoke-induced accumulation of granulocytes in the lung tissue (MPO activity)
- Type: in vivo, rats (Sprague-Dawley)
- condition_summary: male Sprague-Dawley rats, 5 days smoke from 8 cigarettes per day, intratracheal dose 30 min before exposure, lung tissue MPO, linear regression
assay_endpoint: ID50 (dosage which led to a 50% inhibition of the MPO activity) (mg/kg)

molecule	unit_of_measurement	numeric_value
COCCN(CC=CC(=O)Nc1cc2c(Nc3ccc(F)c(Cl)c3)ncnc2cc1OCC1CCCO1)CCOC (centres unmarked) [B]	mg/kg	0.2
COc1cc2ncnc(N[C@H](C)c3ccccc3)c2cc1NC(=O)C=CCN1CC(=O)O[C@H](C)C1 [A]	mg/kg	0.3
COc1cc2ncnc(Nc3ccc(F)c(Cl)c3)c2cc1OCCN1CC(=O)OC(C)(C)C1 [C]	mg/kg	1
CC1(C)CN(CCOc2cc3c(Nc4ccc(F)c(Cl)c4)ncnc3cc2OC[C@H]2CCCO2)CC(=O)O1 [D]	mg/kg	1.1
CC1(C)CN(CCOc2cc3ncnc(Nc4ccc(F)c(Cl)c4)c3cc2OC[C@@H]2CCCO2)CC(=O)O1 [E]	mg/kg	0.4
